- System: IL-12p70 (the complex of IL-12p35 and p40)
- PROCEDURE DETAILS: IL-12p70 production inhibition in macrophages derived from mouse abdomen (IFN-γ/SAC stimulation, ELISA)
- Assay type: cell-based
- PROTOCOL CONDITIONS: Macrophage; mouse (Balb/c) abdominal macrophages, 100 ng/mL mouse IFN-γ + 0.05% SAC, overnight; TFA salts tested where prepared as such; read-out: IL-12p70-Inhibitory Activity IC50
- Text: One milliliter each of a 3% (w/v) thioglycolate solution was intraperitoneally administered to mice (female Balb/c mice), the abdominal cells of each mouse were recovered after 5 or 6 days from the administration of the thioglycolate solution and the adhesive cells were collected and used in the exaluation procedures. […]
Task for the reader: assign each of the following compounds its reported IC50.
Give just the number in nM; leave the unit off.

Please indicate IC50 recorded for C(=N\Nc1cc(N2CCOCC2)n2nc(-c3ccncc3)cc2n1)/c1csc2ccccc12 [Compound 109]
490

Answer with the recorded IC50 of Clc1cccc(/C=N/Nc2cc(N3CCOCC3)n3nc(-c4ccccc4)cc3n2)c1 [Compound 26] only.
120

Output measured IC50 for this item: CCc1cccc(/C=N/Nc2cc(N3CCOCC3)n3nc(-c4ccncc4)cc3n2)c1 [Compound 118]
29

Report IC50, nothing else, for this compound: C(=N\Nc1cc(N2CCOCC2)n2nc(N3CCCCC3)cc2n1)/c1c[nH]c2ccccc12 [Compound 101]
380

---

- Test system: IL-12p70 (the complex of IL-12p35 and p40)
- PROCEDURE DETAILS: IL-12p70 production inhibition in whole blood of mouse (IFN-γ/SAC stimulation, ELISA)
- Type: cell-based
- PROTOCOL CONDITIONS: mouse (Balb/c) whole blood, EDTA, 100 ng/mL mouse IFN-γ + 1.25% SAC, overnight; TFA salts tested where prepared as such
pIC50: −log10 of the molar value.
Quick rule: pIC50 of at least 6 means Satisfied, below that means Not satisfied.

Decide: pIC50 of `C(=N\Nc1cc(N2CCOCC2)n2nc(N3CCOCC3)cc2n1)/c1c[nH]c2ccccc12` >= 6?
Not satisfied

Check if pIC50 >= 6 (inclusive). Item: `CCc1cccc(/C=N/Nc2cc(N3CCOCC3)n3nc(-c4ccncc4)cc3n2)c1`
Satisfied

Is it the case that `C(=N\Nc1cc(N2CCOCC2)n2nc(-c3ccncc3)cc2n1)/c1ccc2cc[nH]c2c1` has pIC50 reaching or exceeding 6?
Satisfied

Quick check, pIC50 >= 6? `C(=N\Nc1cc(N2CCOCC2)n2nc(-c3ccnnc3)cc2n1)/c1c[nH]c2ccccc12`
Not satisfied

Item `Cc1cccc(/C=N/Nc2cc(N3CCOCC3)n3nc(-c4cnccn4)cc3n2)c1` with pIC50 of 6 or above?
Not satisfied

Determine whether this molecule has pIC50 no lower than 6: `C(=N\Nc1cc(N2CCOCC2)n2nc(-c3ccncc3)cc2n1)/c1ccsc1`
Not satisfied

Record Cc1cccc(/C=N/Nc2cc(N3CC4COCC4C3)n3nc(-c4ccncc4)cc3n2)c1 (stereo not drawn) ; criterion: pIC50 no lower than 6. Met?
Satisfied

Entry `Cc1cccc(/C=N/Nc2cc(N3CCOCC3)n3nc(-c4ccc(N5CCOCC5)nc4)cc3n2)c1` : is its pIC50 no less than 6?
Not satisfied

Identify whether the reported pIC50 of the following molecule is 6 or greater: `Cc1cccc(/C=N/Nc2cc(N3CCOCC3)n3ncc(-c4ccccn4)c3n2)c1`
Not satisfied

Kindly determine if pIC50 recorded for `CCc1cccc(/C=N/Nc2cc(N3CCOCC3)n3nc(-c4cnccn4)cc3n2)c1` is above or exactly 6.
Not satisfied

Is pIC50 for `C(=N\Nc1cc(N2CCOCC2)n2nc(-c3ccncc3)cc2n1)/c1cc2ccccc2s1` at or above 6?
Not satisfied

Reported pIC50 reaches at least 6 for `C(=N\Nc1cc(N2CCOCC2)n2nc(-c3ccncc3)cc2n1)/c1ccnc2ccccc12` ?
Not satisfied

Can `Cc1cc2nc(N/N=C/c3c[nH]c4ccccc34)cc(N3CCOCC3)n2n1` be said to have pIC50 at or above 6?
Not satisfied

Tell me whether pIC50 is at least 6 here: `C(=N\Nc1cc(N2CCOCC2)n2nc(-c3ccncc3)cc2n1)/c1ccc2[nH]ccc2c1`
Not satisfied

Check if pIC50 >= 6 (inclusive). Item: `C(=N\Nc1cc(N2CCOCC2)n2nc(-c3cccnc3)cc2n1)/c1c[nH]c2ccccc12`
Not satisfied

Answer whether pIC50 of `Cc1cccc(/C=N/Nc2cc(N3CCOCC3)n3nc(-c4cccnc4)cc3n2)c1` is greater than or equal to 6.
Not satisfied

Can `C(=N\Nc1cc(N2CCOCC2)n2nc(-c3ccncc3)cc2n1)/c1c[nH]c2ccccc12` be said to have pIC50 at or above 6?
Not satisfied

---

- Tested on: IL-12p70 (the complex of IL-12p35 and p40)
- PROCEDURE DETAILS: IL-12p70 production inhibition in macrophages derived from mouse abdomen (IFN-γ/SAC stimulation, ELISA)
- Format: cell-based
- PROTOCOL CONDITIONS: Macrophage; mouse (Balb/c) abdominal macrophages, 100 ng/mL mouse IFN-γ + 0.05% SAC, overnight; TFA salts tested where prepared as such; read-out: IL-12p70-Inhibitory Activity IC50
OUTCOME MEASURE: pIC50
// field semantics: pIC50 = negative decimal log of concentration (mol/L)

Quickly give me recorded pIC50 for `Cc1cccc(/C=N/Nc2cc(N3CCOCC3)n3nc(C4CCNCC4)cc3n2)c1`
6.33

For the compound `CCc1cccc(/C=N/Nc2cc(N3CCOCC3)n3nc(-c4cccnc4)cc3n2)c1` , give its reported pIC50.
7.26

Return pIC50 for the following compound: `Cc1cccc(/C=N/Nc2cc(N3CCOCC3)n3nc(-c4cncnc4)cc3n2)c1`
7.70

Indicate its recorded pIC50; the compound in question is `CC(=O)N1CCN(c2ccc(-c3cc4nc(N/N=C/c5cccc(C)c5)cc(N5CCOCC5)n4n3)cc2)CC1`
8.30

Answer with reported pIC50 of `Cc1cccc(/C=N/Nc2cc(N3CCOCC3)n3nc(-c4ccncn4)cc3n2)c1`
7.33

For the compound `COc1ccc(/C=N/Nc2cc(N3CCOCC3)n3nc(-c4ccncc4)cc3n2)cc1C` , give its reported pIC50.
7.36

Given `C(=N\Nc1cc(N2CCOCC2)n2nc(-c3ccc(N4CCOCC4)nc3)cc2n1)/c1c[nH]c2ccccc12` , respond with its pIC50.
8.74

Quote pIC50 reported for `Cc1cccc(/C=N/Nc2cc(N3CCOCC3)n3nc(-c4ccc(NN5CCOCC5)cc4)cc3n2)c1` please.
8.06

Specify pIC50 for `Cc1ccc(-c2cc3nc(N/N=C/c4c[nH]c5ccccc45)cc(N4CCOCC4)n3n2)cc1` and stop.
7.64

Look up pIC50 of `C(=N\Nc1cc(N2CCOCC2)n2nc(-c3ccncc3)cc2n1)/c1ccc2occc2c1` and report it.
7.44

Report pIC50, nothing else, for this compound: `OB(O)c1cccc(/C=N/Nc2cc(N3CCOCC3)n3nc(-c4ccccc4)cc3n2)c1`
6.60

Report pIC50 for `COCCN(CCOC)c1ccc(-c2cc3nc(N/N=C/c4cccc(C)c4)cc(N4CCOCC4)n3n2)cc1`
8.02

Please look at this compound and report its pIC50: `CCN(CC)c1ccc(-c2cc3nc(N/N=C/c4cccc(C)c4)cc(N4CCOCC4)n3n2)cc1`
7.85

Could you please provide reported pIC50 for `C(=N\Nc1cc(N2CCOCC2)n2nc(-c3ccncc3)cc2n1)/c1cc2ccccc2o1` ? Thanks!
7.30

Given `Cc1cccc(/C=N/Nc2cc(N3CCOCC3)n3nc(-c4ccc(Br)cc4)cc3n2)c1` , respond with its pIC50.
7.74

In one line, give reported pIC50 of the entry `Cc1cccc(/C=N/Nc2cc(N3CCOCC3)n3nc(-c4ccnnc4)cc3n2)c1` .
7.74

Note down pIC50 recorded for `Cc1cccc(/C=N/Nc2cc(N3CCOCC3)n3nc(-c4ccc(N5CCN(C(=O)OC(C)(C)C)CC5)cc4)cc3n2)c1`
7.22

Give the reported pIC50 for this compound. `Cc1cccc(/C=N/Nc2cc(N3CCOCC3)n3nc(C(=O)N(C)c4ccncc4)cc3n2)c1`
6.89

Could you please provide reported pIC50 for `Cc1cccc(/C=N/Nc2cc(N3CCOCC3)n3nc(-c4ccccc4)cc3n2)c1` ? Thanks!
7.72

For the compound `Cc1cccc(/C=N/Nc2cc(N3CCOCC3)n3nc(-c4ccc(Cl)cc4)cc3n2)c1` , report pIC50.
7.47

Consider the compound `Cc1cccc(/C=N/Nc2cc(N3CCOCC3)n3nc(-c4cc(C)on4)cc3n2)c1` and give its recorded pIC50.
7.59

Give pIC50 for the following compound: `Cc1ccc(-c2cc3nc(N/N=C/c4coc5ccccc45)cc(N4CCOCC4)n3n2)cn1`
7.43

Give a short answer stating reported pIC50 for `Cc1ccsc1/C=N/Nc1cc(N2CCOCC2)n2nc(-c3ccccc3)cc2n1` .
6.49

Input `COc1ccccc1/C=N/Nc1cc(N2CCOCC2)n2nc(-c3ccccc3)cc2n1` , output reported pIC50.
6.80

Answer with the recorded pIC50 for the compound listed here: `CCc1cccc(/C=N/Nc2cc(N3CCOCC3)n3nc(-c4cnccn4)cc3n2)c1`
7.31

Specify pIC50 for `Cc1cccc(/C=N/Nc2cc(N3CCOCC3)n3nc(-c4ccncc4)cc3n2)c1` and stop.
8.08

Tell me its pIC50 given `Cc1cccc(/C=N/Nc2cc(N3CCOCC3)n3nc(-c4cnccn4)cc3n2)c1` as the entry.
8.08

Return value of pIC50 for input `Cc1ccc(/C=N/Nc2cc(N3CCOCC3)n3nc(-c4ccccc4)cc3n2)o1` , no commentary.
6.52

Please give the documented pIC50 of `C(=N\Nc1cc(N2CCOCC2)n2nccc2n1)/c1c[nH]c2ccccc12`
6.78

Respond only with pIC50 recorded for `Clc1ccccc1/C=N/Nc1cc(N2CCOCC2)n2nc(-c3ccccc3)cc2n1`
6.82

Give the reported value of pIC50 for this record: `Cc1cccc(/C=N/Nc2cc(N3CCOCC3)n3ncc(-c4ccccc4)c3n2)c1`
6.19

Specify measured pIC50 for `Cc1cccc(/C=N/Nc2cc(N3CCOCC3)n3nc(C4CCN(C(=O)OCc5ccccc5)CC4)cc3n2)c1` .
7.00
